- Assay details: GST conjugation of 1,2-epoxy-3-(p-nitrophenoxy)propane with glutathione (HPLC)
- Assay type: biochemical
- Conditions: purified enzyme, 0.4 mM electrophilic substrate, 4 mM glutathione, 0.1 M MOPS pH 7.0
Measurement type: activity of enzyme with 1,2-epoxy-3-(p-nitrophenoxy)propane (nmol/min/mg)
Answers are plain numbers, in nmol/min/mg.

(Q) Name the recorded activity of enzyme with 1,2-epoxy-3-(p-nitrophenoxy)propane for bms1.pk0023.g8: maize class I GST enzyme encoded by cDNA clone, expressed in E. coli (protein) MAPPMKVYGWAVSPWMARALVCLEEAGADYEIVPMSRCGGDHRRPEHLAKNPFGEIPVLEDGDLTLYQSRAIARYVLRKLKPELLREGDLEGSAMVDAWMEVEAHHMEPALWPIIRHSIIGQYVGRERDHQAVIDENLDRLRKVLPAYEARLSVCKYLVGDDISAADLCHFGFMRYFMATEYAGLVDAYPHVKAWWDALLARPSVQKVMAGMPPDFGYASGNIP .
(A) 0
